Biological target: tau (Homo sapiens)
Test: MCE Phenols Library screening, tau biosensor cell seeding assay (AvZ)
Type: cell-based
Settings: Z score, replicate 1
One threshold, -0.4, splits the recorded Z repl 1 values: lower ones are label 1, equal or higher ones are label 0.

Below, 10 compounds whose answers are already recorded.
compound	discrete-label
O=C1C[C@@H](c2ccc(O)cc2)Oc2cc(O[C@@H]3O[C@H](CO)[C@@H](O)[C@H](O)[C@H]3O)cc(O)c21	label 0
O=C([O-])C(O)Cc1ccc(O)c(O)c1.[Na+] (centres unmarked) [Danshensu (sodium salt)]	label 0
O=C1c2ccccc2C(=O)c2c(O)ccc(O)c21	label 1
O=C1O[C@H]2[C@@H]3OC(=O)c4cc(O)c(O)c(O)c4-c4c(cc(O)c(O)c4O)C(=O)OC[C@H]2O[C@@H](OC(=O)c2cc(O)c(O)c(O)c2)[C@@H]3OC(=O)c2cc(O)c(O)c3c2[C@@H]2C1=CC(=O)[C@](O)(O3)C2(O)O	label 1
COc1cc(/C=C/C(=O)O[C@H]2[C@H](O)[C@@H](CO)O[C@@]2(CO)O[C@H]2O[C@H](COC(=O)c3ccc(O)cc3)[C@@H](O)[C@H](O)[C@H]2O)cc(OC)c1O [Tenuifoliside B]	label 1
O=C(/C=C/c1ccc(O)cc1)c1c(O)cc(O)cc1O	label 1
COc1cc(/C=C/C(=O)[O-])ccc1O.[Na+] [Ferulic acid (sodium)]	label 1
COc1ccc(-c2oc3cc(O)cc(O)c3c(=O)c2O)cc1O	label 0
COc1cc(/C=C/C=O)cc(OC)c1O	label 0
C[C@@H]1O[C@@H](O[C@H]2[C@H](Oc3cc(O)c4c(=O)cc(-c5ccc(O)cc5)oc4c3)O[C@H](CO)[C@@H](O)[C@@H]2O)[C@H](O)[C@H](O)[C@H]1O	label 0

Input line: I'd appreciate it if you could check whether OC[C@H]1O[C@@H](Oc2cc3c(O)cc(O)cc3[o+]c2-c2cc(O)c(O)c(O)c2)[C@H](O)[C@@H](O)[C@@H]1O.[Cl-] [Delphinidin 3-glucoside (chloride)] has Z repl 1 smaller than -0.4.
Output line: label 1

Input line: # TODO verify Z repl 1 < -0.4 strictly for this compound: O=C(O[C@@H]1Cc2c(O)cc(O)cc2O[C@@H]1c1cc(O)c(O)c2c(=O)c(O)cc([C@H]3Oc4cc(O)cc(O)c4C[C@H]3O)cc12)c1cc(O)c(O)c(O)c1 [Theaflavin-3'-gallate]
Output line: label 1

Input line: Quick check: does O=c1ccoc2cc(O)ccc12 [7-Hydroxy-4H-chromen-4-one] have Z repl 1 under -0.4?
Output line: label 0

Input line: Dear colleague, could you confirm whether Z repl 1 of COC(=O)c1c2c(c3ccccc3c1O)OC(C)(C)C=C2 falls below -0.4? Thanks.
Output line: label 0

###

Biological target: tau (Homo sapiens, UniProt P10636)
Sequence (P10636 623-695 limits assumed): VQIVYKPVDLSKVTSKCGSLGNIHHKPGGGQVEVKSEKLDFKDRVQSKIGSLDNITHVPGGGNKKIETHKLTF
Experiment: MCE Phenols Library screening, tau biosensor cell seeding assay (AvZ)
Format: cell-based
Settings: puncta, replicate 1
List of raw data 1 values.
Number only, no unit.

Example entries and their recorded answers appear below.
In [3]: df
Out[3]:
                                   compound  observed_result
0  O=C(O)C[C@H](C(=O)O)[C@H]1c2c(cc(O)c(O)c2O)C(=O)O[C@@H]1C(=O)O [Chebulic acid]          14229.4
1  NC(Cc1cccc(O)c1)C(=O)O (racemic) [DL-m-Tyrosine]          48433.9
2     O=C(O)c1cc(O)c(O)c(O)c1 [Gallic acid]          1468.86

Input line: Specify the recorded raw data 1 for O=C(/C=C/c1ccc(O)c(O)c1)O[C@@H]1C[C@](O)(C(=O)O)C[C@@H](O)[C@H]1O [Chlorogenic acid] , system: tau (Homo sapiens, UniProt P10636).
Output line: 29136

Input line: Give raw data 1 for this entry on tau (Homo sapiens, UniProt P10636): COc1cc(CC(C)C(C)Cc2ccc(O)c(OC)c2)ccc1O (centres unmarked) [Dihydroguaiaretic acid]
Output line: 14843.2

Input line: Output reported raw data 1 of the compound C=CCc1cc(OC)c(O[C@@H](C)[C@H](O)c2ccc(O)c(OC)c2)c(OC)c1 [Myrislignan] on tau (Homo sapiens, UniProt P10636).
Output line: 41167.3

Input line: Tell me raw data 1 of CCC1(O)C(=O)OCc2c1cc1n(c2=O)Cc2cc3cc(O)ccc3nc2-1 (racemic) [(±)-10-Hydroxycamptothecin] when tested on tau (Homo sapiens, UniProt P10636).
Output line: 60066.9

Input line: Given COc1ccc2cc1Oc1ccc(cc1)C[C@H]1c3cc(c(OC)cc3CCN1C)Oc1c(O)c(OC)cc3c1[C@@H](C2)N(C)CC3 [(R)-Fangchinoline] , report its raw data 1 on tau (Homo sapiens, UniProt P10636).
Output line: 29066.8

###

Reported raw data 1 values for a set of molecules
Target: tau (Homo sapiens, UniProt P10636)
Experiment: MCE Phenols Library screening, tau biosensor cell seeding assay (AvZ)
Format: cell-based
Settings: puncta, replicate 1
Please give only the number in your answer, with no unit.

In [3]: df
Out[3]:
                                   molecule  observed_result
0  O=c1cc(-c2ccc(O)c(O)c2)oc2c([C@@H]3O[C@H](CO)[C@@H](O)[C@H](O)[C@H]3O)c(O)cc(O)c12 [Orientin]          33050.1
1  Oc1cc(O)c2c(c1)O[C@@]1(c3ccc(O)c(O)c3)Oc3cc(O)c4c(c3[C@@H]2[C@H]1O)O[C@H](c1ccc(O)c(O)c1)[C@@H](O)C4 [Procyanidin A1]          27718.4

Input line: Quote tau (Homo sapiens, UniProt P10636) raw data 1 for entry O=c1cc(-c2ccc(O)cc2)oc2cc(O)c([C@@H]3O[C@H](CO)[C@@H](O)[C@H](O)[C@H]3O)c(O)c12 [Isovitexin] .
Output line: 37791.5

Input line: Fill in raw data 1 for O=C(O)[C@H](O)Cc1ccc(O)c(O)c1 [Danshensu] tested with tau (Homo sapiens, UniProt P10636).
Output line: 21904.2

###

Target: tau (Homo sapiens)
Test: MCE Phenols Library screening, tau biosensor cell seeding assay (AvZ)
Format: cell-based
Conditions: puncta, replicate 2
readout-type: raw data 2
Kindly provide the number alone.

// solved cases for raw data 2 follow
compound	raw data 2
COc1cc(/C=C/C(=O)O[C@H]2[C@H](O)[C@@H](CO)O[C@@]2(CO)O[C@H]2O[C@H](CO)[C@@H](O)[C@H](O)[C@H]2O)ccc1O [Sibiricose A5]	10668.8
COc1ccc(-c2oc3c(CC=C(C)C)c(O)cc(O)c3c(=O)c2O[C@@H]2O[C@@H](C)[C@H](O)[C@@H](O)[C@H]2O)cc1 [Baohuoside I]	29012.8
C[C@@H]1O[C@@H](O[C@H]2C(=O)c3c(O)cc(O)cc3O[C@H]2c2ccc(O)c(O)c2)[C@H](O)[C@H](O)[C@H]1O [Neoisoastilbin]	16006
COc1ccc(C(=O)O)cc1O [Isovanillic acid]	6897.73

Input line: In one line, give reported raw data 2 of the entry Oc1cc(O)c2c(c1)O[C@H](c1ccc(O)c(O)c1)[C@H](O)[C@H]2c1c(O)cc(O)c2c1O[C@H](c1ccc(O)c(O)c1)[C@H](O)[C@H]2c1c(O)cc(O)c2c1O[C@H](c1ccc(O)c(O)c1)[C@H](O)C2 [Procyanidin C1] .
Output line: 29854.9

Input line: Please report the measured raw data 2 for COc1ccc(-c2cc(=O)c3c(O)cc(O[C@@H]4O[C@H](CO)[C@@H](O)[C@H](O)[C@H]4O[C@@H]4O[C@@H](C)[C@H](O)[C@@H](O)[C@H]4O)cc3o2)cc1O [Neodiosmin]
Output line: 15434.5

Input line: Input CCC1(O)C(=O)OCc2c1cc1n(c2=O)Cc2cc3cc(O)ccc3nc2-1 (racemic) [(±)-10-Hydroxycamptothecin] , output reported raw data 2.
Output line: 34041

Input line: Provide raw data 2 value for the following compound: COc1cc(CC(=O)O)ccc1O [Homovanillic acid]
Output line: 15201.8

Input line: Query raw data 2 for O=C(/C=C/c1ccc(O)c2c1[C@H](C(=O)O)[C@@H](c1ccc(O)c(O)c1)O2)O[C@H](Cc1ccc(O)c(O)c1)C(=O)O [Lithospermic acid]
Output line: 3853.96

Input line: // fetch raw data 2 given entry O=C(/C=C/c1ccc(O)cc1)c1ccc(O)cc1O [Isoliquiritigenin]
Output line: 14661.5

Input line: Kindly indicate its recorded raw data 2. Item: CC(C)=CCC[C@]1(C)C=Cc2c(O)c3c(c(CC=C(C)C)c2O1)O[C@]12C(=C[C@@H]4C[C@H]1C(C)(C)O[C@@]2(C/C=C(/C)C(=O)O)C4=O)C3=O [Gambogic acid]
Output line: 2596.6

Input line: Please give the documented raw data 2 of CC(=O)N[C@@H](Cc1ccc(O)cc1)C(=O)O [N-Acetyl-L-tyrosine]
Output line: 3423.63

Input line: Tell me raw data 2 reported for OC[C@H]1O[C@@H](Oc2ccc(O)cc2)[C@H](O)[C@@H](O)[C@@H]1O [Arbutin]
Output line: 16322.6

Input line: Using known records, supply raw data 2 for COc1cc(C)ccc1O [Creosol]
Output line: 25838.9

Value source: paper PMC11784839
